test: resazurin metabolic signal in A549 cells – cell-based, resazurin fluorescence, 24 h, PK04 Diversity Set, profiling panel (AID 1171); conditions: A549 viability, higher = more signal, called active from +8 up or from −8 down; note: test concentration not given here
Catalogue of z-score values
Respond numerically, and do not add a unit to the figure.

Solved entries (count: 6):
| COMPOUND | z-score |
| --- | --- |
| CC1CC/C=C\[C@H]2OC34C=CCN(c5ccc6ccccc6c5)C(=O)[C@H]3N(C(C)CO)C(=O)[C@@H]4C2C(=O)O1 (stereo not given in full) | -0.0299 |
| C=CCNC(=O)[C@H]1[C@@H]2C(=O)O[C@@H](c3ccccc3)[C@@H](c3ccccc3)N2[C@@H](c2ccccc2OCCO)[C@]12C(=O)N(C(=O)OCCOC)c1ccc(C#Cc3ccc(OC)cc3)cc12 | -0.958 |
| COc1ccc([Si](C)(C)[C@@H]2[C@@H](CC(=O)N3CCC[C@H]3CO)O[C@]3(C(=O)N(Cc4ccc(N5CCOC5=O)cc4)c4ccccc43)[C@H]2C)cc1 | -1.77 |
| O=C1C2C=CC(C(O)C3CCCCC3)N(n3cnnc3)C2C(=O)N1Cc1ccccc1 (stereo not given) | 0.714 |
| C[C@@H]1NC(=O)C([C@@H](C)OCc2ccccc2)NC(=O)[C@@]23C(=O)N[C@@H](Cc4ccccc4)C2[C@H](C)[C@@]2(C)O[C@H]2C3/C=C/C/C=C\CNC1=O (stereo not given in full) | -0.0746 |
| CC(C)C(O)C1C=CC2C(=O)NC(=O)C2N1Nc1ccccn1 (stereo not given) | -1.05 |

Tell me the measured z-score of COc1cc(CO)cc(I)c1O[C@H]1C=C(C(=O)NCCO)C[C@@H]2O[C@H]12 , please. -1.41

Can you check O=C1C=C(c2ccccc2)C(=O)C2=C1CC([C@H]1Oc3ccccc3S(=O)(=O)N3CCC[C@@H]13)=CC2 next? -0.0039

Can you check COCCOC(=O)N1C(=O)[C@@]2(c3ccccc31)[C@H](c1ccc(O)cc1)N1[C@H](c3ccccc3)[C@H](c3ccccc3)OC(=O)[C@H]1[C@@H]2C(=O)N1CCCCCCC1 next? -0.257

###

Catalogue of z-score values
test: JC-1 mitochondrial signal, unstimulated myeloma cells – cell-based, JC-1 fluorescence, RPMI8226, 24 h, 100 nL compound, profiling panel (AID 1169); details: JC-1 mitochondrial potential fluorescence, higher = more signal; note: test concentration not given here

Solved entries (count: 6):
| COMPOUND | MEASUREMENT |
| --- | --- |
| COC(=O)[C@H](Cc1ccc(O)cc1)N[C@@H](/C=C/C1CC1)[C@H](O)Cc1ccccc1 | -0.512 |
| CC[C@@H]1C=C(C(=O)O)[C@H](c2ccc(OC)cc2)N1S(=O)(=O)c1ccc(C)cc1 | -0.168 |
| CCCN1C(=O)[C@]2(CCC(=O)OC(C)(C)C)N=C(c3ccc(OCCCO)cc3)O[C@@H]2c2ccccc21 | -1.32 |
| O=C1N(Cc2ccccc2)c2ccccc2C[C@@]12COC(c1ccc(OCCCO)cc1)=N2 | -0.907 |
| COc1ccc([Si](C)(C)[C@@H]2[C@@H](CC(=O)N3Cc4ccccc4C[C@H]3CO)O[C@]3(C(=O)N(Cc4cccc(N5CCOC5=O)c4)c4ccccc43)[C@H]2C)cc1 | -1.16 |
| Cc1ccc(S[C@]2(C(=O)NC(C)C)CC(=O)N(C3CCCCC3)[C@@H]2c2ccc(CO)cc2I)cc1 | -0.351 |

Tell me the measured z-score of C[C@@H]1NC(=O)C([C@@H](C)OCc2ccccc2)NC(=O)[C@@]23C(=O)N[C@@H](Cc4ccccc4)C2[C@H](C)[C@@]2(C)O[C@H]2C3/C=C/C/C=C\CNC1=O (stereo not given in full) , please. 0.514

Can you check O=C(NCC(O)CO)C1N=C(c2ccc(OCCCO)cc2)N(c2ccccc2)O1 (stereo not given) next? -0.877
